Source: PubChem BioAssay (EPA / NIEHS)

- Read-out: Collagen III, COL3A1 (gene 1281)
- assay.remarks: BSK_hDFCGF_CollagenIII: BioMAP Diversity Plus: hDFCGF Assay for Collagen III Biomarker Activity (AID 2283056)
- particulars: primary human foreskin fibroblasts; actives raise or lower the signal
Calls of active or inactive are those of the source. The calls were made as follows: active = hit-call score of the fitted dose curve at least 0.9, where 1 is the maximum; inactive = score below 0.9.
Just give me one of these, please: true (1) = active, false (0) = inactive

molecule: CCCCCCCCCCCCc1ccccc1S(=O)(=O)O
assigned.label: true (1)

molecule: CCc1nn(C2CCCCC2)c2cc(C3(C#N)CCC(C(=O)O)CC3)ccc12 (stereo not drawn)
assigned.label: true (1)

**Q:** Hi, sorry to bother you, what did the test record for `CN(C)C=O` ?
**A:** false (0)

**Q:** Which outcome was entered for the molecule `FC(F)(I)C(F)(F)C(F)(F)C(F)(F)C(F)(F)C(F)(F)I` in this test?
**A:** true (1)
